assay-system: Beta-secretase 1 (Homo sapiens)
Sequence (P56817 whole entry): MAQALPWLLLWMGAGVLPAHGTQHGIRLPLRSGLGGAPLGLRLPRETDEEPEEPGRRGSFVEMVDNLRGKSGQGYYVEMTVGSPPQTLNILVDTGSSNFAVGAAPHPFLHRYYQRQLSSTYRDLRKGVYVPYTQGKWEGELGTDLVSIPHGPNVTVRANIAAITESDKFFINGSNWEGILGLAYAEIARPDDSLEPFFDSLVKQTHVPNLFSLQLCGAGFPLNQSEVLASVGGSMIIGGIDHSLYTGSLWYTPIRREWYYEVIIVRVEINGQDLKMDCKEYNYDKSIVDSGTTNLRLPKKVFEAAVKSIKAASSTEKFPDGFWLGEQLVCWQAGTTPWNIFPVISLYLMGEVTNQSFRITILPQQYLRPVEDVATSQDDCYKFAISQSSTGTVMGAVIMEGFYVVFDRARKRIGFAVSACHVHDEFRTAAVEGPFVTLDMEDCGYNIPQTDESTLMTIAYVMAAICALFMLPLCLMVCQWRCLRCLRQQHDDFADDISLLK
test-protocol: Inhibition of human recombinant BACE1
pIC50: −log10 of the molar value.

- smiles: "CC(C)[C@H](NC(=O)[C@@H](N)CNC(=O)c1nnn[nH]1)C(=O)N[C@@H](CC1CCCCC1)C(=O)N[C@@H](Cc1ccccc1)[C@@H](O)C(=O)Nc1cccc(-c2nnn[nH]2)c1"
  pIC50: 8.48
- smiles: "CC(C)[C@H](NC(=O)[C@@H](N)CNC(=O)c1[nH]c(=O)[nH]c(=O)c1F)C(=O)N[C@@H](CC1CCCCC1)C(=O)N[C@@H](Cc1ccccc1)[C@@H](O)C(=O)Nc1cccc(-c2nnn[nH]2)c1"
  pIC50: 8.25
- smiles: "CC(C)C[C@H](NC(=O)[C@@H](NC(=O)[C@@H](N)CNC(=O)c1[nH]c(=O)[nH]c(=O)c1F)C(C)C)C(=O)N[C@@H](Cc1ccccc1)[C@@H](O)C(=O)Nc1cccc(-c2nnn[nH]2)c1"
  pIC50: 8.19
